Values from patent US20200247800A1

Target: human NOX4 (Homo sapiens, UniProt Q9NPH5)
Construct: expressed in transfected cells; membrane fraction used
Sequence (Q9NPH5 whole entry): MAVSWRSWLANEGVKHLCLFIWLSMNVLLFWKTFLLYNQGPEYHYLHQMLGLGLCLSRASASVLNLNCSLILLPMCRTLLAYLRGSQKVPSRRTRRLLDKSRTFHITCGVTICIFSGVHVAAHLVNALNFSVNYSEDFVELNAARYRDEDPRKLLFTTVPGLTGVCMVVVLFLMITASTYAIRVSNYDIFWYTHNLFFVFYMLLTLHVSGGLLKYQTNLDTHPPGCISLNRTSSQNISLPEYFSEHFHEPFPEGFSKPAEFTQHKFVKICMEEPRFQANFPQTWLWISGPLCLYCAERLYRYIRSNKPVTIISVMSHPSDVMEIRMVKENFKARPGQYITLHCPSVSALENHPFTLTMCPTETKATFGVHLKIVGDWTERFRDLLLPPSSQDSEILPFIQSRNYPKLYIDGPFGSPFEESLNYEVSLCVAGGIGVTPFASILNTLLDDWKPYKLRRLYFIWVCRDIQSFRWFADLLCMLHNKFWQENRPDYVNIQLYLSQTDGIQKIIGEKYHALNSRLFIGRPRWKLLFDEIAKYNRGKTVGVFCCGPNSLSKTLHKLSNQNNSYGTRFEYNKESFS
Sequence (P13498 whole entry partner): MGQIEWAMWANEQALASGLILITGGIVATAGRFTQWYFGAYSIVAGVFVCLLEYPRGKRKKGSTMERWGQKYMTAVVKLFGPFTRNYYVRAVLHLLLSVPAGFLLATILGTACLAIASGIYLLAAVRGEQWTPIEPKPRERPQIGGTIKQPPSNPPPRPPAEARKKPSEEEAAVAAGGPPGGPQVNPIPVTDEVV
Experiment: Cell free membrane based in vitro NOX4 assay: H2O2 production by membranes expressing human NOX4, measured with Amplex Red
Format: biochemical
Details: 1.0 μM compound, read-out: Percentage inhibition at 1.0 μM
Tag: met if measured inhibition at 1 µM is not below 90%, not met if it is.

* Cn1ncc2c(=O)c(O)c(-c3ccccc3Cl)[nH]c21 [Example 3] | met
* O=c1c(O)c(-c2c(F)cccc2F)[nH]c2c1c(CN1CCOCC1)nn2C1CC1 [Example 201] | not met
* CCc1nn(CCCN2CCOCC2)c2[nH]c(-c3ccc(F)cc3F)c(O)c(=O)c12 [Example 176] | not met
* CCn1nc(C)c2c(=O)c(O)c(-c3cc(CNC(=O)C(C)(C)C)ccc3Cl)[nH]c21 [Example 129] | not met
* COc1ccc(-c2[nH]c3c(c(C)nn3C)c(=O)c2O)c(Cl)c1 [Example 18] | not met
* Cc1nn(C)c2oc(-c3ccccc3Cl)c(O)c(=O)c12 [Example 230] | not met

###

Biological target: human NOX4 (Homo sapiens, UniProt Q9NPH5)
Construct: expressed in transfected cells; membrane fraction used
Assay: Cell free membrane based in vitro NOX4 assay: H2O2 production by membranes expressing human NOX4, measured with Amplex Red
Assay type: biochemical
Details: 10.0 μM compound, read-out: Percentage inhibition at 10.0 μM
Where a name gives a salt, the structure may show the parent alone.
The entries below are paired with their reported inhibition at 10 µM.
Parameter: inhibition at 10 µM (%)

* Cc1nn(C2CC2)c2[nH]c(-c3cccc(F)c3F)c(O)c(=O)c12 | 72.3
* CC(=O)Oc1c(-c2c(F)cccc2F)[nH]c2c(c(C)nn2C)c1=O | 66.9
* Cn1nc(C(F)(F)F)c2c(=O)c(O)c(-c3ccncc3Cl)[nH]c21 [Example 46, hydrochloride] | 100
* CCc1nn(C)c2[nH]c(-c3c(F)cccc3F)c(O)c(=O)c12 | 79.3
* CCn1nc(C)c2c(=O)c(O)c(-c3ccc(F)c(C(F)(F)F)c3F)[nH]c21 | 73
* Cn1nc2[nH]c(-c3ccccc3Cl)c(O)c(=O)c2c1-c1ccc(F)cc1 | 51.2
* COCCn1nc(C)c2c(=O)c(O)c(-c3c(F)cccc3F)[nH]c21 | 100
* CCc1nn(C)c2[nH]c(-c3ccccc3Cl)c(O)c(=O)c12 | 69.8
* Cc1nn(CCN2CCNCC2)c2[nH]c(-c3ccccc3Cl)c(O)c(=O)c12 | 50.1
* Cc1nn(CCCN2CCOCC2)c2[nH]c(-c3ccccc3Cl)c(O)c(=O)c12 | 64.9
* COc1ccc(-c2[nH]c3c(c(C)nn3CC(F)(F)F)c(=O)c2O)c(F)c1 | 98.4
* Cn1nc(C2CCOCC2)c2c(=O)c(O)c(-c3ccccc3Cl)[nH]c21 | 75.4
* Cc1nn(CCN2CCCC2)c2[nH]c(-c3ccccc3Cl)c(O)c(=O)c12 | 76.2
* CCc1nn(C)c2[nH]c(-c3cccc(C(F)(F)F)c3F)c(O)c(=O)c12 | 68.9
* CC(C)N1CCN(Cc2nn(C)c3[nH]c(-c4c(F)cccc4F)c(O)c(=O)c23)C[C@H]1C | 96.6
* CCc1nn(CCN2CCN(C)CC2)c2[nH]c(-c3c(F)cccc3F)c(O)c(=O)c12 | 95.5
* Cn1nc(CN2CC[C@H](F)C2)c2c(=O)c(O)c(-c3c(F)cccc3F)[nH]c21 | 100
* Cc1nn(-c2ccccn2)c2[nH]c(-c3ccccc3Cl)c(O)c(=O)c12 | 77.3
* CC(C)N1CCN(Cc2nn(C)c3[nH]c(-c4c(F)cccc4F)c(O)c(=O)c23)C[C@@H]1C | 92.7
* Cc1nn(CCN2CCN(C)CC2)c2[nH]c(-c3ccccc3Cl)c(O)c(=O)c12 | 93.3
* Cn1nc(CN2CCN(C3CC3)CC2)c2c(=O)c(O)c(-c3c(F)cccc3F)[nH]c21 | 88.3
* CCn1cnc2c(=O)c(O)c(-c3c(F)cccc3F)[nH]c21 | 88.6
* CCn1nc(C)c2c(=O)c(O)c(-c3cc(CNC(=O)C(C)(C)C)ccc3Cl)[nH]c21 | 74.4
* Cc1c2c(=O)c(O)c(-c3ccccc3Cl)[nH]c2nn1C | 38.8
* O=c1c(O)c(-c2c(F)cccc2F)[nH]c2c1c(C(F)(F)F)nn2C1CCOCC1 | 88.2
* Cc1c2oc(-c3ccccc3Cl)c(O)c(=O)c2nn1C(C)C | 11
* CCc1nn(CCC2CCOCC2)c2[nH]c(-c3c(F)cccc3F)c(O)c(=O)c12 | 93.7
* Cc1nn(-c2ccc(F)cc2Cl)c2[nH]c(-c3ccccc3Cl)c(O)c(=O)c12 | 95.1
* Cc1nn(C)c2[nH]c(-c3ccc(F)cc3Cl)c(O)c(=O)c12 | 86
* CCc1nn(CCn2cccn2)c2[nH]c(-c3c(F)cccc3F)c(O)c(=O)c12 | 100
* COc1ccc(-c2[nH]c3c(c(C(F)(F)F)nn3C)c(=O)c2O)c(Cl)c1 | 98.3
* Cc1nn(CC(C)C)c2[nH]c(-c3c(F)cccc3F)c(O)c(=O)c12 | 77.9
* CCc1nn(C)c2[nH]c(-c3cnc(-c4ccc(F)cc4F)s3)c(O)c(=O)c12 | 77.8
* Cc1nn(CCN2CCOCC2)c2[nH]c(-c3c(F)cccc3F)c(O)c(=O)c12 | 100
